System: Staphylococcus aureus
TEST PROTOCOL: Antimicrobial activity against methicillin-sensitive Staphylococcus aureus by agar dilution method
Format: functional
VALUE KIND: MIC90

CCCCCCCCCC(=O)N[C@@H](Cc1c[nH]c2ccccc12)C(=O)N[C@H](CC(N)=O)C(=O)N[C@@H](CC(=O)O)C(=O)N[C@@H]1C(=O)NCC(=O)N[C@@H](CCCN)C(=O)N[C@@H](CC(=O)O)C(=O)N[C@H](C)C(=O)N[C@@H](CC(=O)O)C(=O)NCC(=O)N[C@H](CO)C(=O)N[C@@H]([C@H](C)CC(=O)O)C(=O)N[C@@H](CC(=O)c2ccccc2N)C(=O)O[C@@H]1C
0.25 mg/L
CN(C)c1ccc(O)c2c1C[C@H]1C[C@H]3[C@H](N(C)C)C(O)=C(C(N)=O)C(=O)[C@@]3(O)C(O)=C1C2=O
0.25 mg/L
CC(=O)NC[C@H]1CN(c2ccc(N3CCOCC3)c(F)c2)C(=O)O1
2 mg/L
CN[C@H](CC(C)C)C(=O)N[C@H]1C(=O)N[C@@H](CC(N)=O)C(=O)N[C@H]2C(=O)N[C@H]3C(=O)N[C@H](C(=O)N[C@H](C(=O)O)c4cc(O)cc(O)c4-c4cc3ccc4O)[C@H](O)c3ccc(c(Cl)c3)Oc3cc2cc(c3O[C@@H]2O[C@H](CO)[C@@H](O)[C@H](O)[C@H]2O[C@H]2C[C@](C)(N)[C@H](O)[C@H](C)O2)Oc2ccc(cc2Cl)[C@H]1O
1 mg/L
